B1: Homeobox expressed in ES cells 1, residues 110 to 165; numbered along this chain, Q9UBX0 (parent)
chain: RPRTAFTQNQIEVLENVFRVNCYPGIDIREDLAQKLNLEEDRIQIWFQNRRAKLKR

variants of: B1; assay: abundance fitness (aPCA) (normalised: wild type 0, dead -1); higher = more abundant; growth selection in yeast, the domain comes from the species named; details: Homo sapiens
property: abundance fitness
No unit in the answer, please; the number alone is enough.

Some solved cases for reference:
> print(dat)
   variant.identifier           property  recorded.measurement
1                 Q8M  abundance fitness                -0.168
2                E12R  abundance fitness                -0.346
3                F18I  abundance fitness                -0.328
4                C22Q  abundance fitness                 0.156
5                 T4V  abundance fitness                -0.003
6                 P2E  abundance fitness                 0.734
7                D27S  abundance fitness                 0.233
8                V20W  abundance fitness                -0.436

Let us examine a further case.
Query: Would you kindly share the measured abundance fitness for D27C ?
Result: -0.155
